# subject_of_test: Sodium- and chloride-dependent glycine transporter 1 (Homo sapiens)
# Sequence (P48067 whole entry): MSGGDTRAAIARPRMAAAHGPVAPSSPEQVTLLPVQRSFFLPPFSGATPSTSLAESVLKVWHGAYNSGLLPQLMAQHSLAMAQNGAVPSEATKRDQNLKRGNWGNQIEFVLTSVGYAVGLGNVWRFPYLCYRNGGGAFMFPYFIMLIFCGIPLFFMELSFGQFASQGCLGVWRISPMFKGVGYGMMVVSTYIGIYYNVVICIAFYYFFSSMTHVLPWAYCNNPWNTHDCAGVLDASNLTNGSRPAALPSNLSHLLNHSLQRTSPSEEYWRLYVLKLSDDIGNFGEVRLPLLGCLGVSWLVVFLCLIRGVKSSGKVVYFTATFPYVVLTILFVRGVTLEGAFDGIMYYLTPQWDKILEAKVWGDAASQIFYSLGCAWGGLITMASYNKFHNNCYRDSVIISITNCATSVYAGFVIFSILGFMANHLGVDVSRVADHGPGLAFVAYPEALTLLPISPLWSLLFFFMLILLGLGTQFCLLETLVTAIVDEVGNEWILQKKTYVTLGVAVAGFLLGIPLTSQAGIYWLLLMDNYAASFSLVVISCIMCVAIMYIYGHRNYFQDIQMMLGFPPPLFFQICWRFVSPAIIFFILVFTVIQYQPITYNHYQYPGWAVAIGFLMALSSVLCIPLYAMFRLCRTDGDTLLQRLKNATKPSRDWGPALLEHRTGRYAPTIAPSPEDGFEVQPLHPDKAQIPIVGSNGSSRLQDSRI
# assay_details: Inhibition of [14C]glycine reuptake at human GlyT1 expressed in BE(2)-C cells
pIC50: −log10 of the molar value.
Please use Yes whenever pIC50 is not below 7, and No whenever it is.

smiles_structure	category
CN(CCOc1ccc(-c2ccccc2)cc1C(=O)c1cccs1)CC(=O)O	Yes
Cc1ccccc1-c1cc(-c2ccccc2)ccc1OCCN(C)CC(=O)O	Yes
CN(CCOc1ccc(-c2ccccc2)cc1C1CCCCC1)CC(=O)O	No
CN(CCOc1ccc(C(F)(F)F)cc1C(=O)c1cccs1)CC(=O)O	No
CN(CCOc1ccc(-c2ccccc2)cc1-c1nccs1)CC(=O)O	No
CN(CCOc1ccc(-c2ccccc2)cc1-c1ccccc1)CC(=O)O	No
Cc1cccc(-c2ccc(OCCN(C)CC(=O)O)c(C(=O)c3cccs3)c2)c1	Yes
CN(CCOc1ccc(-c2ccc3c(c2)OCCO3)cc1-c1cccs1)CC(=O)O	Yes
CN(CCOc1ccc(-c2ccccc2)cc1Cc1cccs1)CC(=O)O	Yes
CN(CCOc1ccc(-c2ccc3c(c2)OCO3)cc1-c1ccccc1Cl)CC(=O)O	Yes
CN(CCOc1ccc(-c2ccccc2)cc1-c1ccccc1Cl)CC(=O)O	Yes
Cc1ccc(-c2ccc(OCCN(C)CC(=O)O)c(C(=O)c3cccs3)c2)cc1	Yes
CN(CCOc1ccc(-c2ccc3c(c2)OCO3)cc1C(=O)c1cccs1)CC(=O)O	Yes
CN(CCOc1ccc(-c2ccc3c(c2)OCCO3)cc1-c1ccccc1Cl)CC(=O)O	Yes
